From various publications: IC50 for the protein given by its sequence.
Protein target, amino acids: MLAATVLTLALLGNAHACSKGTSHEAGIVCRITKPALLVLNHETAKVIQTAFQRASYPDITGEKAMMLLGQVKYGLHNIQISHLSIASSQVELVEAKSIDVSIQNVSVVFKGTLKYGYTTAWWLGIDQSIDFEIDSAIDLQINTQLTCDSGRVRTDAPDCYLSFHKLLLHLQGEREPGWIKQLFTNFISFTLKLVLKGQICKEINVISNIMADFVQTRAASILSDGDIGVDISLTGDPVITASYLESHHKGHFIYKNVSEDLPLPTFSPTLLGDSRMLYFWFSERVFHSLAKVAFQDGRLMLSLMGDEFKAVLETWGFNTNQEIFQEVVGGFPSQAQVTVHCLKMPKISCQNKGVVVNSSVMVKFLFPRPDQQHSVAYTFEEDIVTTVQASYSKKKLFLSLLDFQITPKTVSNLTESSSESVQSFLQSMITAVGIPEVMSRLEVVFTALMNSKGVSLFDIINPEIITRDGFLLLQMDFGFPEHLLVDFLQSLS
Provide only the numeric value, understood in µM.

COMPOUND | TARGET_OR_SYSTEM | MEASUREMENT_KIND | EXPERIMENTAL_VALUE
CC(C)c1cc(C#N)cc2nc(-c3ccc(C(=O)NCC4CN(c5ccc(-c6ccccc6OC(F)(F)F)cn5)C(=O)O4)cc3)oc12 (racemic) | the protein given by its sequence | IC50 | 0.067
CC(C)c1cc(C#N)cc2nc(-c3ccc(C(=O)NCC4CCN(c5nccc(C(F)(F)F)n5)CC4)cc3)oc12 | the protein given by its sequence | IC50 | 0.022
Clc1ccc(N2CCN(c3nc(N/N=C/c4ccccc4)nc(N4CCNCC4)n3)CC2)cc1 | the protein given by its sequence | IC50 | 10
Clc1ccc(Cc2nc(N3CCNCC3)nc(N3CCN(c4ccc(Cl)cc4)CC3)n2)cc1 | the protein given by its sequence | IC50 | 9
Clc1ccc(N2CCN(c3nc(C#Cc4ccccc4)nc(N4CCNCC4)n3)CC2)cc1 | the protein given by its sequence | IC50 | 12

Entry `COC(=O)N(Cc1cc(C(F)(F)F)cc(C(F)(F)F)c1)Cc1cc(C#N)ccc1-c1cc(C(C)C)ccc1OC` — recorded IC50 = 0.224

Entry `COc1cc(F)c(C(C)C)cc1-c1ccc(N)cc1CN1C(=O)O[C@H](c2cc(C(F)(F)F)cc(C(F)(F)F)c2)[C@@H]1C` — recorded IC50 = 0.296

Reported IC50 for `c1ccc(OCCNc2ccc(-c3nc4ccccc4o3)cc2)cc1` was 75.9

====

Target sequence: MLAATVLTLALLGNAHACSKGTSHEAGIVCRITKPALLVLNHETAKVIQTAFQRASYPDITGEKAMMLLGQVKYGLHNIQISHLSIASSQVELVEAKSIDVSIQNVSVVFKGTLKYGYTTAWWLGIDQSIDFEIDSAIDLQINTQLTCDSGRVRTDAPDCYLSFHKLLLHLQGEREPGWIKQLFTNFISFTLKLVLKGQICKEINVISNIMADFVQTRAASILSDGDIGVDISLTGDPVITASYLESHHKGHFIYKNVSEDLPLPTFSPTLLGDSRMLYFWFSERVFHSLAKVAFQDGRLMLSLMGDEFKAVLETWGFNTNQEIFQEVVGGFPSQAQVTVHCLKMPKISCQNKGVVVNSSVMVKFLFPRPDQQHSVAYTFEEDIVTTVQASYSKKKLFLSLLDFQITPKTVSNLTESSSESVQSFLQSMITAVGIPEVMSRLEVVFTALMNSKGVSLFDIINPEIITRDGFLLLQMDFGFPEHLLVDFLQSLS
Here's a roundup of pIC50 values tested on the protein given by its sequence, taken from various published works.
Lab note — pIC50 values are minus log10 of concentrations in M.

Example results:
COMPOUND | TARGET_OR_SYSTEM | pIC50
CC(C)c1cc(C#N)cc2nc(-c3ccc(C(=O)NC[C@H]4CC[C@H](c5cc(C(F)(F)F)cc(C(F)(F)F)c5)CC4)cc3)oc12 | the protein given by its sequence | 7.08
OC(CN(Cc1cccc2c1OC(F)(F)C(F)(F)O2)c1cccc(Oc2ccccc2)c1)C(F)(F)F (stereo not drawn) | the protein given by its sequence | 4.92
COc1cc(F)c(C(C)C)cc1-c1ccc(S(=O)(=O)C(C)C)cc1CN1C(=O)O[C@H](c2cc(C(F)(F)F)cc(C(F)(F)F)c2)[C@@H]1C | the protein given by its sequence | 5.59
Cc1cc(C#N)cc2nc(-c3ccc(CC(=O)CN4CCN(c5ccc(C(F)(F)F)cc5)CC4)cc3)oc12 | the protein given by its sequence | 5.24
CCCc1ccc(OC)c(-c2ccc(C(F)(F)F)cc2CN(Cc2cc(C(F)(F)F)cc(C(F)(F)F)c2)C(=O)OC)c1 | the protein given by its sequence | 6.12

The compound `COC(=O)N(Cc1cc(C(F)(F)F)cc(C(F)(F)F)c1)Cc1cc(N)ccc1-c1cc(C(C)C)ccc1OC` showed pIC50 equal to 5.33

Summary for this compound, `CCc1ccccc1OCC(=O)Nc1ccc(-c2nc3cc(Cl)ccc3o2)cc1` : pIC50 is 5.59
